All figures here come from PubChem BioAssay AID1963426.

system: 186277-243-T-J2-PDC complex spheroid growth, % test/control; assay: Anticancer human tumor 186277-243-T-J2-PDC patient-derived colon adenocarcinoma cell line growth inhibition [Asc]; settings: curve of first compound; second compound 0.1 µM;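 also: spheroids exposed to agents for 7 days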
ENDPOINT LABEL: IC50

# example entries with known answers
COMPOUND: CCN1CCN(Cc2ccc(Nc3ncc(F)c(-c4cc(F)c5nc(C)n(C(C)C)c5c4)n3)nc2)CC1 + CNC(C)C(=O)NC1CN(S(=O)(=O)c2cccc(S(=O)(=O)N3CCC4CCC(C(=O)NC(c5ccccc5)c5ccccc5)N4C(=O)C(NC(=O)C(C)NC)C3)c2)CCC2CCC(C(=O)NC(c3ccccc3)c3ccccc3)N2C1=O
TEST TARGET: 186277-243-T-J2-PDC complex spheroid growth, % test/control;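 also: spheroids exposed to agents for 7 days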
VALUE: > 1000 nM
//
COMPOUND: NC1CCC(NC2CC2c2ccccc2)CC1 (stereo not drawn) + CNC(C)C(=O)NC1CN(S(=O)(=O)c2cccc(S(=O)(=O)N3CCC4CCC(C(=O)NC(c5ccccc5)c5ccccc5)N4C(=O)C(NC(=O)C(C)NC)C3)c2)CCC2CCC(C(=O)NC(c3ccccc3)c3ccccc3)N2C1=O
TEST TARGET: 186277-243-T-J2-PDC complex spheroid growth, % test/control;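 also: spheroids exposed to agents for 7 days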
VALUE: > 100 nM

Here is the next item to consider.
Measured IC50 (186277-243-T-J2-PDC complex spheroid growth, % test/control), entry O=C(c1cc(Cc2n[nH]c(=O)c3ccccc23)ccc1F)N1CCN(C(=O)C2CC2)CC1 + Cc1c(S(C)(=O)=O)c(-c2cc(F)cc(N3CCN(c4ccc(NS(=O)(=O)c5ccc(NC(CCN6CCC(C(=O)OCCCP(=O)(O)O)CC6)CSc6ccccc6)c(S(=O)(=O)C(F)(F)F)c5)cc4)CC3)c2)c(-c2ccc(Cl)cc2)n1C(C)C : > 10000 nM
